# maps each entry to its CLint scaled
assay: Metabolic stability in human liver microsomes fortified with NADPH (Example 11); type: in vitro ADME; set-up: dose or concentration left out as unconfirmed; details: pH 7.4; human liver microsomes, from mono-exponential decay model; read-out: Clint (intrinsic clearance)
quantityKind: CLint scaled (mL/min/kg)

- molecule: "Nc1ccccc1NC(=O)CCCCCC(=O)Nc1ccc(Br)cc1"
  endpointValue: 2.78
- molecule: "CC(/C=C/C(=O)NO)=C\\[C@@H](C)C(=O)c1ccc(N(C)C)cc1 [TSA, Trichostatin A, reference compound]"
  endpointValue: 9.05
- molecule: "Nc1ccccc1NC(=O)CCCCCC(=O)Nc1cccc(Br)c1"
  endpointValue: 4.73
- molecule: "Nc1ccccc1NC(=O)CCCCCCC(=O)Nc1ccccc1 [BML-210, reference compound]"
  endpointValue: 11.9

----------
# maps each entry to its K (rate constant)
assay: Metabolic stability in human liver microsomes fortified with NADPH (Example 11); type: in vitro ADME; conditions: 0.5 mg/mL human liver microsomes, 1 mM NADPH, pH 7.4, 37° C.

- molecule: "Nc1ccccc1NC(=O)CCCCCCC(=O)Nc1ccccc1 [BML-210, reference compound]"
  K (rate constant) (min⁻¹): 0.0116
- molecule: "Nc1ccccc1NC(=O)CCCCCC(=O)Nc1ccc(Br)cc1 [7MI]"
  K (rate constant) (min⁻¹): 0.0027
- molecule: "CC(/C=C/C(=O)NO)=C\\[C@@H](C)C(=O)c1ccc(N(C)C)cc1 [TSA, Trichostatin A, reference compound]"
  K (rate constant) (min⁻¹): 0.0088
- molecule: "Nc1ccccc1NC(=O)CCCCCC(=O)Nc1cccc(Br)c1 [8MI]"
  K (rate constant) (min⁻¹): 0.0046

Sourced from patent US20180028477A1
